Consider the following compounds and their measured pIC50 readings.
# System: MOLM-13 cells
# test.name: MOLM-13 Cell Proliferation Assay (indicator of DHODH inhibition)
# Format: cell-based
# condition.info: Homo sapiens, 72 Hours of culture, CellTiter-Glo, no uridine
Field pIC50 (float): negative decimal logarithm of the concentration in molar.

# example entries with known answers
Prompt line: State pIC50 (MOLM-13 cells) of Oc1cc(Cl)ccc1C1c2[nH]c3ccc(Cl)cc3c2CCN1c1nccc(C(F)(F)F)n1 (stereo not drawn) [Compound 222] .
Response line: 8.46

Prompt line: State pIC50 (MOLM-13 cells) of Cc1ccc(C2c3[nH]c4ccc(Cl)c(N)c4c3CCN2c2nccc(C(F)(F)F)n2)c(F)c1F (stereo not drawn) [Compound 273] .
Response line: 8.12

Next:
Prompt line: State pIC50 (MOLM-13 cells) of Cc1nc(C)nc(N2CCc3c([nH]c4ccc(Cl)cc34)C2c2cnc(N3CCN(C)CC3)nc2)n1 (stereo not drawn) [Compound 380] .
Response line: 7.58

Prompt line: State pIC50 (MOLM-13 cells) of Fc1c(Cl)ccc2[nH]c3c(c12)CCN(c1ncc(Cl)cn1)C3c1ccc(Cl)cc1 (stereo not drawn) [Compound 27] .
Response line: 7.75

Prompt line: State pIC50 (MOLM-13 cells) of Cc1ccc(C2c3[nH]c4cc(F)c(Cl)cc4c3CCN2c2ncc(C(F)(F)F)cn2)c(F)c1F (stereo not drawn) [Compound 142] .
Response line: 8.37

Prompt line: State pIC50 (MOLM-13 cells) of Cc1ccc(C2c3[nH]c4cc(F)c(Cl)cc4c3CCN2c2ncc(F)cn2)c(F)c1F (stereo not drawn) [Compound 138] .
Response line: 8.46

Prompt line: State pIC50 (MOLM-13 cells) of Cc1nc(N2CCc3c([nH]c4ccc(Cl)cc34)[C@@H]2c2ccc(C)c(F)c2F)nc(C(F)(F)F)n1 [Compound 464] .
Response line: 9.70

====

# Tested on: MOLM-13 cells
# test.name: MOLM-13 Cell Proliferation Assay (indicator of DHODH inhibition)
# Type: cell-based
# condition.info: Homo sapiens, 72 Hours of culture, CellTiter-Glo, no uridine
Consider the following molecules and their measured pIC50 readings.
Field pIC50 (float): negative decimal logarithm of the concentration in molar.

Prompt line: Tell us which pIC50 value is on record for Cc1ccc(C2c3[nH]c4c(N)cc(Cl)cc4c3CCN2c2nccc(C(F)(F)F)n2)cc1 (stereo not shown) [Compound 231]
Response line: 8.96

Prompt line: Tell us which pIC50 value is on record for OCCOCc1ccc(C2c3[nH]c4cc(F)c(Cl)cc4c3CCN2c2nccc(C(F)(F)F)n2)cc1 (stereo not shown) [Compound 223]
Response line: 8.70

Prompt line: Tell us which pIC50 value is on record for N#Cc1ccc(C2c3[nH]c4ccc(Cl)cc4c3CCN2c2nccc(C(F)(F)F)n2)c(F)c1F (stereo not shown) [Compound 278]
Response line: 8.77

Now examine the next entry.
Prompt line: Tell us which pIC50 value is on record for Fc1ccc(C2c3[nH]c4ccc(Cl)c(F)c4c3CCN2c2nccc(C(F)(F)F)n2)cc1 (stereo not shown) [Compound 60]
Response line: 8.03

====

# Tested on: MOLM-13 cells
# test.name: MOLM-13 Cell Proliferation Assay (indicator of DHODH inhibition)
# Format: cell-based
# condition.info: Homo sapiens, 72 Hours of culture, CellTiter-Glo, no uridine
assay.metric: log10 IC50 (log10 of the value in nM)
Scale: decimal log of IC50, IC50 in nM.

Prompt line: Tell us which log10 IC50 value is on record for Cc1ccc([C@H]2c3[nH]c4ccc(Cl)cc4c3CCN2c2nc(C#N)cc(C#N)n2)cc1 [Compound 397]
Response line: 0.38

Prompt line: Tell us which log10 IC50 value is on record for Cc1ccc(C2c3[nH]c4ccc(Cl)cc4c3CCN2c2ncc(F)c(C)n2)c(F)c1F (stereo not drawn) [Compound 235]
Response line: 0.18

Prompt line: Tell us which log10 IC50 value is on record for Cc1ccc([C@H]2c3[nH]c4ccc(Cl)cc4c3CCN2c2nc(C(F)(F)F)nc(C(Cl)(Cl)Cl)n2)c(F)c1F [Compound 505]
Response line: 0.18

Prompt line: Tell us which log10 IC50 value is on record for Fc1c(Cl)ccc2[nH]c3c(c12)CCN(c1nccc(C(F)(F)F)n1)C3c1cnc(-n2cncn2)nc1 (stereo not drawn) [Compound 230]
Response line: 0.92

Prompt line: Tell us which log10 IC50 value is on record for FC(F)(F)c1cc(C(F)(F)F)nc(N2CCc3c([nH]c4ccc(Cl)cc34)[C@@H]2c2cnc(N3CCNC4(CC4)C3)nc2)n1 [Compound 512]
Response line: 0.20

Next:
Prompt line: Tell us which log10 IC50 value is on record for Fc1c(Cl)ccc2[nH]c3c(c12)CCN(c1nccc(C(F)(F)F)n1)C3c1cnc(-n2ccnc2)nc1 (stereo not drawn) [Compound 193]
Response line: 0.58

Prompt line: Tell us which log10 IC50 value is on record for FC(F)(F)c1nc(N2CCc3c([nH]c4ccc(Cl)cc34)C2c2cnc(N3CCOCC3)nc2)nc(C(F)(F)F)n1 (stereo not drawn) [Compound 388]
Response line: -0.52

Prompt line: Tell us which log10 IC50 value is on record for Cc1ccc(C2c3[nH]c4ccc(F)c(F)c4c3CCN2c2ncc(F)cn2)cc1 (stereo not drawn) [Compound 82]
Response line: 1.94

Prompt line: Tell us which log10 IC50 value is on record for Cc1nc(N2CCc3c([nH]c4ccc(Cl)cc34)C2c2ccc(C)c(F)c2F)nc(C(F)(F)F)n1 (stereo not drawn) [Compound 438]
Response line: -0.22

Prompt line: Tell us which log10 IC50 value is on record for Cc1ccc(C2c3[nH]c4ccc(Cl)c(F)c4c3CCN2c2ncc(F)cn2)cc1 (stereo not drawn) [Compound 20]
Response line: 1.11

Prompt line: Tell us which log10 IC50 value is on record for Fc1ccc(C2c3[nH]c4cc(F)c(Cl)cc4c3CCN2c2ncc(F)cn2)cc1 (stereo not drawn) [Compound 5]
Response line: 1.83

Prompt line: Tell us which log10 IC50 value is on record for Fc1cc2[nH]c3c(c2cc1Cl)CCN(c1ncc(C(F)(F)F)cn1)C3c1cccc(F)c1F (stereo not drawn) [Compound 133]
Response line: 1.05

Prompt line: Tell us which log10 IC50 value is on record for Cc1cc(C#N)nc(N2CCc3c([nH]c4cc(F)c(Cl)cc34)C2c2cccc(F)c2F)n1 (stereo not drawn) [Compound 152]
Response line: 0.57

Prompt line: Tell us which log10 IC50 value is on record for CCCCOc1nc(C)nc(N2CCc3c([nH]c4ccc(Cl)cc34)C2c2cnc(N3CCOCC3)nc2)n1 (stereo not drawn) [Compound 318]
Response line: 0.63

Prompt line: Tell us which log10 IC50 value is on record for CC(=O)c1ncc([C@H]2c3[nH]c4ccc(Cl)cc4c3CCN2c2nc(C(F)(F)F)nc(C(F)(F)F)n2)cn1 [Compound 533]
Response line: 0.67

====

# Tested on: MOLM-13 cells
# test.name: MOLM-13 Cell Proliferation Assay (indicator of DHODH inhibition)
# Type: cell-based
# condition.info: Homo sapiens, 72 Hours of culture, CellTiter-Glo, no uridine
assay.metric: IC50 (nM)
The answer is to be given in nM; state only the numeric part.

# example entries with known answers
Prompt line: State IC50 (MOLM-13 cells) of `Cc1nc(N2CCc3c([nH]c4ccc(Cl)cc34)[C@@H]2c2ccc(N3CCOCC3)nc2)nc(C#N)c1F` .
Response line: 2

Prompt line: State IC50 (MOLM-13 cells) of Cc1nc(N2CCc3c([nH]c4ccc(Cl)c(F)c34)C2c2ccc(CCCCO)cc2)ncc1F (centres unmarked) .
Response line: 2.8

Prompt line: State IC50 (MOLM-13 cells) of Fc1ccc(C2c3[nH]c4ccc(Cl)c(F)c4c3CCN2c2ncc(F)cn2)cc1 (centres unmarked) .
Response line: 21.6

Prompt line: State IC50 (MOLM-13 cells) of Fc1cnc(N2CCc3c([nH]c4cc(F)c(Cl)cc34)C2c2ccc(F)cc2F)nc1 (centres unmarked) .
Response line: 35.8

Now examine the next entry.
Prompt line: State IC50 (MOLM-13 cells) of COCCOc1ncc(C2c3[nH]c4ccc(Cl)cc4c3CCN2c2nc(C(F)(F)F)nc(C(F)(F)F)n2)cn1 (centres unmarked) .
Response line: 1.2

====

# Test system: MOLM-13 cells
# test.name: MOLM-13 Uridine Rescue Assay
# Type: cell-based
# condition.info: Homo sapiens; MOLM-13 cell proliferation with 100 μM Uridine added, 72 Hours of culture
Consider the following molecules and their measured IC50 readings.
The answer is to be given in µM; state only the numeric part.

# example entries with known answers
Prompt line: Tell us which IC50 value is on record for N#Cc1ccc(C2c3[nH]c4ccc(Cl)cc4c3CCN2c2nccc(C(F)(F)F)n2)c(F)c1 (centres unmarked) [Compound 255]
Response line: 15.6

Prompt line: Tell us which IC50 value is on record for Cc1ccc(C2c3[nH]c4ccc(Cl)cc4c3CCN2c2nccc(C#N)n2)c(F)c1F (centres unmarked) [Compound 363]
Response line: 10.3

Prompt line: Tell us which IC50 value is on record for Cc1cc(C)nc(N2CCc3c([nH]c4ccc(Cl)cc34)C2c2ccc(N3CCOCC3)nc2)n1 (centres unmarked) [Compound 350]
Response line: 14.9

Prompt line: Tell us which IC50 value is on record for Cc1ccc(C2c3[nH]c4ccc(Cl)cc4c3CCN2c2nc(C(F)(F)F)cc(C(F)(F)F)n2)c(F)c1F (centres unmarked) [Compound 340]
Response line: 15.2

Prompt line: Tell us which IC50 value is on record for Cc1ccc(C2c3[nH]c4c(N)cc(Cl)cc4c3CCN2c2nccc(C(F)(F)F)n2)c(F)c1F (centres unmarked) [Compound 248]
Response line: 8.55

Prompt line: Tell us which IC50 value is on record for N#Cc1ccnc(N2CCc3c([nH]c4ccc(Cl)cc34)C2c2cnc(N3CCOCC3)nc2)n1 (centres unmarked) [Compound 359]
Response line: 5.67

Prompt line: Tell us which IC50 value is on record for FC(F)(F)c1cc(C(F)(F)F)nc(N2CCc3c([nH]c4ccc(Cl)cc34)[C@@H]2c2cnc(N3CCOCC3)nc2)n1 [Compound 410]
Response line: 14.2

Prompt line: Tell us which IC50 value is on record for Cc1ccc2[nH]c3c(c2c1)CCN(c1nccc(C(F)(F)F)n1)C3c1ccc(C)c(F)c1F (centres unmarked) [Compound 271]
Response line: 22.7

Next:
Prompt line: Tell us which IC50 value is on record for Fc1cc2[nH]c3c(c2cc1Cl)CCN(c1nccc(C(F)(F)F)n1)C3c1cccc(F)c1F (centres unmarked) [Compound 108]
Response line: 8.27

Prompt line: Tell us which IC50 value is on record for FC(F)(F)c1cc(C(F)(F)F)nc(N2CCc3c([nH]c4ccc(Cl)cc34)C2c2ccc(N3CCOCC3)nc2)n1 (centres unmarked) [Compound 357]
Response line: 9.3

Prompt line: Tell us which IC50 value is on record for N#Cc1ccnc(N2CCc3c([nH]c4ccc(Cl)cc34)C2c2ccc(N3CCOCC3)nc2)n1 (centres unmarked) [Compound 356]
Response line: 6.96
